# Test Target: Serine/threonine-protein kinase B-raf (Homo sapiens)
# Sequence (P15056 whole entry): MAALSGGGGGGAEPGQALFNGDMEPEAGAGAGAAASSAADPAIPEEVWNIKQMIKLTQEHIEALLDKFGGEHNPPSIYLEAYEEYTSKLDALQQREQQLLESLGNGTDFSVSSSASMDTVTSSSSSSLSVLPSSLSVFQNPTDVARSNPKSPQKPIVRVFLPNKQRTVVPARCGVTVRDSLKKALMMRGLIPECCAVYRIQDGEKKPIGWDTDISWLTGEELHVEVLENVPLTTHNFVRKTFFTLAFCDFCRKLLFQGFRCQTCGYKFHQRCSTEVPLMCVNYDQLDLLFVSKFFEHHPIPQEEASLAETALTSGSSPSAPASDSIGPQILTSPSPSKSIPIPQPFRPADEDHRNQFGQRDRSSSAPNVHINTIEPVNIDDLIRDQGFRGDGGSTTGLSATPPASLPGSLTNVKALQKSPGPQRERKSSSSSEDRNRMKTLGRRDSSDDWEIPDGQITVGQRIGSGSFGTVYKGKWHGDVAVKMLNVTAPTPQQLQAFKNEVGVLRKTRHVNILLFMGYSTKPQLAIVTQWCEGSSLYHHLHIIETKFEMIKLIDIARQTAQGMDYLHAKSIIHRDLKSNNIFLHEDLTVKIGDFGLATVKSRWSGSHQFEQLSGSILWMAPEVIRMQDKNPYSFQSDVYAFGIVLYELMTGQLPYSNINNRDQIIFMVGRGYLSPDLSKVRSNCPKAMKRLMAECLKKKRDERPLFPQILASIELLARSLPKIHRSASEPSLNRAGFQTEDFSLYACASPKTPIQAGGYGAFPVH
Property Name: IC50

Look up IC50 for this molecule: COCC1CN(C2CCN(c3cc(OC)c(Nc4ncc(Br)c(Nc5ccc6c(c5P(C)(C)=O)OCCO6)n4)cc3C)CC2)C1
> 10 µM

====

# Measurement Notes: Cmax in mouse at 5 mg/kg measured upto 24 hrs by LC-MS/MS analysis
# Assay type: ADME, organism-based
# Parameters: time < 24 hrs, dose 5 mg/kg
# Measurement Setup: in vivo
Quick reference for Cmax among some compounds
I only need the number, in ng/mL, no unit after it.

The following compounds have reported results that may help.
Mol	Cmax, ng/mL
COc1cc(N2CCC(N3CC(N(C)C)C3)CC2)c(C)cc1Nc1ncc(Br)c(Nc2ccc3c(c2P(C)(C)=O)OCCO3)n1	1680
CCc1cc(Nc2ncc(Br)c(Nc3ccc4c(c3P(C)(C)=O)OCO4)n2)c(OC)cc1N1CCC(N2CC(N(C)C)C2)CC1	1470
CCc1cc(Nc2ncc(Br)c(Nc3ccc4c(c3P(C)(C)=O)OCCO4)n2)c(OC)cc1N1CCC(N2CC(N(C)C)C2)CC1	2110

Look up Cmax for this compound: CCO[C@@H]1CCN(C2CCN(c3cc(OC)c(Nc4ncc(Br)c(Nc5ccc6c(c5P(C)(C)=O)OCCO6)n4)cc3C)CC2)C1
1260

Look up Cmax for this compound: COCC1CN(C2CCN(c3cc(OC)c(Nc4ncc(Br)c(Nc5ccc6c(c5P(C)(C)=O)OCCO6)n4)cc3C)CC2)C1
1990

Look up Cmax for this compound: CCOC1CN(C2CCN(c3cc(OC)c(Nc4ncc(Br)c(Nc5ccc6c(c5P(C)(C)=O)OCCO6)n4)cc3C)CC2)C1
2030

====

# Test Target: Epidermal growth factor receptor (Homo sapiens, UniProt P00533, C797S/EX18DEL/T790M)
# Sequence (P00533 whole entry, looked up, stated change not applied): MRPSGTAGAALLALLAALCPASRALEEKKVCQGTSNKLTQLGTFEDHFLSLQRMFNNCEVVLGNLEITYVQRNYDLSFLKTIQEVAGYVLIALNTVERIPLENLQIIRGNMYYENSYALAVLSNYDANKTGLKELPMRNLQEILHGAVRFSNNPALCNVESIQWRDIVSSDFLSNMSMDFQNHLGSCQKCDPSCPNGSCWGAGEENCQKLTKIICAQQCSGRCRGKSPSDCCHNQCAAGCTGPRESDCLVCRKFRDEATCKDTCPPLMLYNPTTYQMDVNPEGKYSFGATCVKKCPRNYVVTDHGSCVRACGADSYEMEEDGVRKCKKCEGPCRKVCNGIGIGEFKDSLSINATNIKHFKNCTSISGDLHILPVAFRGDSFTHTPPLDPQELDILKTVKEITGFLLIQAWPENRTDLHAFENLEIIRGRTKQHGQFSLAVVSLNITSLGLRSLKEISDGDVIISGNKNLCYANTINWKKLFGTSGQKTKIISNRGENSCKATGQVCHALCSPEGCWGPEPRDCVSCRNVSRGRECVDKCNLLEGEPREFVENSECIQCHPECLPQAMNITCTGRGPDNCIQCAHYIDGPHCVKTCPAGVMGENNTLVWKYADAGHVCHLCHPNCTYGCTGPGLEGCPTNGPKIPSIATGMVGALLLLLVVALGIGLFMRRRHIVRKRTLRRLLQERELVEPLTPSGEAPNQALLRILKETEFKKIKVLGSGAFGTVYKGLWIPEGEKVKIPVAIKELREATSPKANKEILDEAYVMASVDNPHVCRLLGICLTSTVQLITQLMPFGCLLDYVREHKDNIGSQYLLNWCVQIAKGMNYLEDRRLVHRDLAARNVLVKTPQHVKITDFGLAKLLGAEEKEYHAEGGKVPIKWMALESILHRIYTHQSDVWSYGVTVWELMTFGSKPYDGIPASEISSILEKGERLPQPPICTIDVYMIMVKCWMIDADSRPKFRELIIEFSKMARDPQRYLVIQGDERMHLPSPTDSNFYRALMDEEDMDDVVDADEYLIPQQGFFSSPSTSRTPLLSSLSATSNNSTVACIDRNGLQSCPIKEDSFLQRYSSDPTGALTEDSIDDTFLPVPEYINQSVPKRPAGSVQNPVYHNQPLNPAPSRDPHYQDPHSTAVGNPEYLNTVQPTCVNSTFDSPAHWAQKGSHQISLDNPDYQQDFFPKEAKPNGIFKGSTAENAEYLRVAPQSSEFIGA
# Measurement Notes: Inhibition of EGFR del18/T790M/C797S triple mutant (unknown origin) using TK as substrate incubated for 120 mins in the presence of ATP by HTRF assay
Category | rule: reported IC50 within range, see low (below 0.1 nM), mid (0.1 nM to below 0.3 nM), high (0.3 nM or more)

These recorded examples may help you get a feel for the data.
Mol	Class Label
CCc1cc(Nc2ncc(Br)c(Nc3ccc4nccnc4c3P(C)(C)=O)n2)c(OC)cc1N1CCC(N2CC(N(C)C)C2)CC1	mid
CCc1cc(Nc2ncc(Br)c(Nc3ccc4c(c3P(C)(C)=O)OCCO4)n2)c(OC)cc1N1CCC(N2CC(COC)C2)CC1	mid
COc1cc(N2CCC(N3CCCOCC3)CC2)c(C)cc1Nc1ncc(Br)c(Nc2ccc3c(c2P(C)(C)=O)OCCO3)n1	mid
CCc1cc(Nc2ncc(Br)c(Nc3ccc4c(c3P(C)(C)=O)OCO4)n2)c(OC)cc1N1CCC(N2CC(N(C)C)C2)CC1	high

Which band does COCC1CN(C2CCN(c3cc(OC)c(Nc4ncc(Br)c(Nc5ccc6c(c5P(C)(C)=O)OCCO6)n4)cc3C)CC2)C1 fall in?
high

Which band does COc1cc(N2CCC(N3CC(N(C)C)C3)CC2)c(C)cc1Nc1ncc(Br)c(Nc2ccc3nccnc3c2P(C)(C)=O)n1 fall in?
low

Which band does CCOC1CN(C2CCN(c3cc(OC)c(Nc4ncc(Br)c(Nc5ccc6ncnn6c5P(C)(C)=O)n4)cc3CC)CC2)C1 fall in?
high

Which band does CCc1cc(Nc2ncc(Br)c(Nc3ccc4c(c3P(C)(C)=O)OCCO4)n2)c(OC)cc1N1CCC(N2CC(N(C)C)C2)CC1 fall in?
low

Which band does CCc1cc(Nc2ncc(Br)c(Nc3ccc4c(c3P(C)(C)=O)OCCO4)n2)c(OC)cc1N1CCC(N2CC(CC#N)C2)CC1 fall in?
high

Which band does COc1cc(N2CCC(N3CC[C@H](N(C)C)C3)CC2)c(C)cc1Nc1ncc(Br)c(Nc2ccc3c(c2P(C)(C)=O)OCCO3)n1 fall in?
mid

Which band does COc1cc(N2CCC(N3CCCN(C)CC3)CC2)c(C)cc1Nc1ncc(Br)c(Nc2ccc3c(c2P(C)(C)=O)OCCO3)n1 fall in?
low

====

# Measurement Notes: MRT in mouse at 5 mg/kg measured upto 24 hrs by LC-MS/MS analysis
# Format: ADME, organism-based
# Measurement Setup: in vivo
Quick reference for MRT among some compounds
I only need the number, in h, no unit after it.

The following compounds have reported results that may help.
Mol	Units Text	Reading
CCOC1CN(C2CCN(c3cc(OC)c(Nc4ncc(Br)c(Nc5ccc6c(c5P(C)(C)=O)OCCO6)n4)cc3C)CC2)C1	h	6.1
CCc1cc(Nc2ncc(Br)c(Nc3ccc4c(c3P(C)(C)=O)OCO4)n2)c(OC)cc1N1CCC(N2CC(N(C)C)C2)CC1	h	6
CCc1cc(Nc2ncc(Br)c(Nc3ccc4c(c3P(C)(C)=O)OCCO4)n2)c(OC)cc1N1CCC(N2CC(N(C)C)C2)CC1	h	6.3
CCO[C@@H]1CCN(C2CCN(c3cc(OC)c(Nc4ncc(Br)c(Nc5ccc6c(c5P(C)(C)=O)OCCO6)n4)cc3C)CC2)C1	h	5.5
COCC1CN(C2CCN(c3cc(OC)c(Nc4ncc(Br)c(Nc5ccc6c(c5P(C)(C)=O)OCCO6)n4)cc3C)CC2)C1	h	4.7

// switching to the query compound
Look up MRT for this compound: COc1cc(N2CCC(N3CC(N(C)C)C3)CC2)c(C)cc1Nc1ncc(Br)c(Nc2ccc3c(c2P(C)(C)=O)OCCO3)n1
6

====

Reported IC50, Epidermal growth factor receptor (Homo sapiens).

The following compounds have reported results that may help.
Mol	Property Name	Reading
CCOC1CN(C2CCN(c3cc(OC)c(Nc4ncc(Br)c(Nc5ccc6ncnn6c5P(C)(C)=O)n4)cc3CC)CC2)C1	IC50	> 500 nM
CCc1cc(Nc2ncc(Br)c(Nc3ccc4nccnc4c3P(C)(C)=O)n2)c(OC)cc1N1CCC(N2CCCN(C)CC2)CC1	IC50	3000 nM

Look up IC50 for this compound: CCc1cc(Nc2ncc(Br)c(Nc3ccn4ncnc4c3P(C)(C)=O)n2)c(OC)cc1N1CCC(N2CCOCC2)CC1
> 500 nM

Look up IC50 for this compound: CCc1cc(Nc2ncc(Br)c(Nc3ccc4ncnn4c3P(C)(C)=O)n2)c(OC)cc1N1CCC(N2CC(COC)C2)CC1
> 500 nM

====

# Test Target: Mitogen-activated protein kinase 14 (Homo sapiens)
# Sequence (Q16539 whole entry): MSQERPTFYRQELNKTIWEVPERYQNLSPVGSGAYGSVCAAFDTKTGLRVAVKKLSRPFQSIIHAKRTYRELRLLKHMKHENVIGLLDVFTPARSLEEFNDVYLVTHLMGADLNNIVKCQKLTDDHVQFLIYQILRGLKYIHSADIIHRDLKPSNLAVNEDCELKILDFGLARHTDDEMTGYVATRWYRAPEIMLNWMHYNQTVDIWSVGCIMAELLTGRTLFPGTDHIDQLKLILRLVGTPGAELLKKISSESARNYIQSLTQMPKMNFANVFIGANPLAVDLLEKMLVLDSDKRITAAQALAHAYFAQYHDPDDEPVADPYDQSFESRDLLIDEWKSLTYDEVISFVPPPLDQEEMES
# Measurement Notes: Inhibition of P38alpha (unknown origin)
Property Name: IC50

Lab note: need IC50 for COCC1CN(C2CCN(c3cc(OC)c(Nc4ncc(Br)c(Nc5ccc6c(c5P(C)(C)=O)OCCO6)n4)cc3C)CC2)C1 on Mitogen-activated protein kinase 14 (Homo sapiens), anyone have it?
> 10 µM

====

# Test Target: Epidermal growth factor receptor (Homo sapiens, UniProt P00533, C797S/EX18DEL/T790M)
# Measurement Notes: Inhibition of EGFR del18/T790M/C797S triple mutant (unknown origin) using TK as substrate incubated for 120 mins in the presence of ATP by HTRF assay
Property Name: pIC50
Recall that pIC50 is obtained by taking minus log10 of the concentration measured in molar.

The following compounds have reported results that may help.
Mol	Test Target	Reading
COc1cc(N2CCC(N3CC(N(C)C)C3)CC2)c(C)cc1Nc1ncc(Br)c(Nc2ccc3c(c2P(C)(C)=O)OCCO3)n1	Epidermal growth factor receptor (Homo sapiens, UniProt P00533, C797S/EX18DEL/T790M)	9.52
CCc1cc(Nc2ncc(Br)c(Nc3ccc4ncnn4c3P(C)(C)=O)n2)c(OC)cc1N1CCC(N2CC(COC)C2)CC1	Epidermal growth factor receptor (Homo sapiens, UniProt P00533, C797S/EX18DEL/T790M)	10.00
CCc1cc(Nc2ncc(Br)c(Nc3ccn4ncnc4c3P(C)(C)=O)n2)c(OC)cc1N1CCC(N2CCN(CC)CC2)CC1	Epidermal growth factor receptor (Homo sapiens, UniProt P00533, C797S/EX18DEL/T790M)	10.00
CCc1cc(Nc2ncc(Br)c(Nc3ccn4ncnc4c3P(C)(C)=O)n2)c(OC)cc1N1CCC(N2CCOCC2)CC1	Epidermal growth factor receptor (Homo sapiens, UniProt P00533, C797S/EX18DEL/T790M)	9.74
CCO[C@@H]1CCN(C2CCN(c3cc(OC)c(Nc4ncc(Br)c(Nc5ccc6c(c5P(C)(C)=O)OCCO6)n4)cc3C)CC2)C1	Epidermal growth factor receptor (Homo sapiens, UniProt P00533, C797S/EX18DEL/T790M)	9.55

Look up pIC50 for this compound: CCOC1CN(C2CCN(c3cc(OC)c(Nc4ncc(Br)c(Nc5ccc6nccnc6c5P(C)(C)=O)n4)cc3C)CC2)C1
9.19

Look up pIC50 for this compound: CCc1cc(Nc2ncc(Br)c(Nc3ccc4nccnc4c3P(C)(C)=O)n2)c(OC)cc1N1CCC(N2CCCN(C)CC2)CC1
9.08
